tested on: PPARg DBDmut IVT, anti-PPARg (DBD mutation: PPARg1 K132A/R137A, NR concentration 270 nM); experiment: PBM binding z-score (relative to random genomic background probes); higher = stronger binding; sequences stand for … in GC…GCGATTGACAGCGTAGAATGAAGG
Attribute: PBM binding z-score

sequence.content	PBM binding z-score
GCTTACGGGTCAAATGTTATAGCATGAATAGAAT	1.2
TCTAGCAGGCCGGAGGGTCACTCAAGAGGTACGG	-1.31
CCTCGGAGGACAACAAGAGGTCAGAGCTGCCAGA	-1.03
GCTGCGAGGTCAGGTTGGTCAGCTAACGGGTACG	-0.641
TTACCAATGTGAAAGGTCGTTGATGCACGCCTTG	0.235
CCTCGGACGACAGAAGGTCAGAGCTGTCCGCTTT	-2.04
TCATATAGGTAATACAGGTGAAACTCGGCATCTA	0.856
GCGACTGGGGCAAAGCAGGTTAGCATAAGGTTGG	-1.6
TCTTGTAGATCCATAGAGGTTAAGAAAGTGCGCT	0.975
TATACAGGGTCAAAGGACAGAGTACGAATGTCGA	2.81
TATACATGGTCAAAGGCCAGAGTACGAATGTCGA	0.812
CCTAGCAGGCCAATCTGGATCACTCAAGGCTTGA	-1.19
